Tested on: E21 (patient-derived glioblastoma stem cells of mesenchymal subtype);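 note: cell Painting imaging in 384-well plates, CellProfiler features reduced to at least 20 principal components, Euclidean distance versus same-plate DMSO vehicle wells (0.1% v/v), median over six images per well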
Assay: phenotypic distance (Euclidean, principal components) from DMSO controls (arbitrary units); higher = stronger morphological change
Details: 37 nM; exposure time: 72 h
measurement_label: phenotypic distance
Just the number, please.

| molecule | test_system | measurement_label | value_reported |
| --- | --- | --- | --- |
| NC(=O)c1cccc2cn(-c3ccc([C@@H]4CCCNC4)cc3)nc12 [Niraparib] | E21 | phenotypic distance | 0.998 |
| CC(C)(C)C1CCN(C(=O)n2ncc(C(O)(c3ccccc3)c3ccccc3)n2)CC1 [ML211] | E21 | phenotypic distance | 0.671 |

Find the measured phenotypic distance of CC1CNc2c(cccc2S(=O)(=O)N[C@@H](CCCNC(=N)N)C(=O)N2CC[C@@H](C)C[C@@H]2C(=O)O)C1 (stereo partly drawn) [Argatroban] and report it.
1.18

Find the measured phenotypic distance of O=C1c2c(O)ccc(O)c2C(=O)c2c(NCCNCCO)ccc(NCCNCCO)c21 [Mitoxantrone] and report it.
6.11

Find the measured phenotypic distance of COc1cc([C@@H]2c3cc4c(cc3[C@H](O)[C@H]3COC(=O)[C@H]23)OCO4)cc(OC)c1OC [Podophyllotoxin] and report it.
8.54

Find the measured phenotypic distance of Clc1ccc(COC(Cn2ccnc2)c2ccc(Cl)cc2Cl)c(Cl)c1 (stereo not drawn) [Miconazole] and report it.
0.693

Find the measured phenotypic distance of Nc1nc(Cl)nc2c1ncn2[C@@H]1O[C@H](CO)[C@@H](O)[C@@H]1F [Clofarabine] and report it.
1.36

Find the measured phenotypic distance of CC(C)C[C@@H](C(=O)N[C@H](C(=O)OC1CCCC1)c1ccccc1)[C@H](O)C(=O)NO [Tosedostat] and report it.
0.947

Find the measured phenotypic distance of CCC(C)(C)C(=O)O[C@H]1C[C@@H](C)C=C2C=C[C@H](C)[C@H](CC[C@@H]3C[C@@H](O)CC(=O)O3)[C@H]21 [Simvastatin] and report it.
2.52

Find the measured phenotypic distance of COc1cc2c(cc1O)CC[C@@H]1[C@@H]2CC[C@]2(C)[C@@H](O)CC[C@@H]12 [2-methoxyestradiol] and report it.
0.858

Find the measured phenotypic distance of OCCN1CCN(CCCN2c3ccccc3Sc3ccc(Cl)cc32)CC1 [Perphenazine] and report it.
0.693

Find the measured phenotypic distance of CCC(C)n1ncn(-c2ccc(N3CCN(c4ccc(OCC5COC(Cn6cncn6)(c6ccc(Cl)cc6Cl)O5)cc4)CC3)cc2)c1=O (stereo not drawn) [Itraconazole] and report it.
0.932

Find the measured phenotypic distance of C/C=C1\NC(=O)[C@H]2CSSCC/C=C/[C@H](CC(=O)N[C@H](C(C)C)C(=O)N2)OC(=O)[C@H](C(C)C)NC1=O [Romidepsin] and report it.
7.46

Hello, the source for this data is the supplement of paper PMC13207355, in case you need it.
